Experiment Notes: Counterscreen for Identifying a Potential Treatment of Ataxia-Telangiectasia: Hit Validation
Study Conditions: cell-free AlphaLISA/AlphaScreen artifact counterscreen, PBS only, no cells; series mostly up to 76.9 µM
Activity calls are given as the source filed them. The call rests on the fitted dose curve; in most records, active means well fitted activation curve with a large enough effect; inconclusive means small, poorly fitted or top-dose-only effect; inactive means no such curve, though single readings can be large or run the other way.
Select the correct class. Options are class 1 for active, class 0 for inactive and nothing else.

Compound: O=C(NC12CC3CC(CC(C3)C1)C2)c1cccc(OC(F)F)c1
Assigned Class: class 0
--
Compound: CC(C)(C)C1CCC2(CC1)SCC(=O)N2c1ccccc1 (centres undefined)
Assigned Class: class 0
--
Compound: CCOC(=O)Cn1c(-c2ccccc2)cc(SC)c(C#N)c1=O
Assigned Class: class 0
--
Compound: CC(C)c1ccc(-c2cc(C(=O)N3CCOCC3)c3cc(Br)ccc3n2)cc1
Assigned Class: class 0

State the result this test recorded for CC(C)CNS(=O)(=O)c1cc(C(=O)O)c(Cl)cc1Cl .
class 0

// next record COc1cccc(OCCc2c(C)n[nH]c2C)c1
class 0

// next record COc1cc(/C=C2\CCOC2=O)cc(OC)c1OC
class 0

// next record COC1=C(N)C(=O)c2nc(-c3nc(C(=O)O)c(C)c(-c4ccc(OC)c(OC)c4O)c3N)ccc2C1=O
class 0

// next record Clc1cccc(Cl)c1CSc1nnc(-c2ccncc2)s1
class 0

// next record O=C(N/N=C/c1cccc2ccccc12)c1cccnc1
class 0

// next record O=C(c1nn2c(C(F)(F)F)cc(-c3ccc(F)cc3)nc2c1Cl)N1CCOCC1
class 0

// next record O=[N+]([O-])c1ccc(F)cc1F
class 0

// next record CC(=O)c1sc2nc(C)c3c(c2c1N)CCCC3
class 1

// next record COc1ccc(C(=O)/C=C/C(=O)N(CC(=O)NC2CCCCC2)Cc2ccccc2)c(O)c1
class 0

// next record CSc1nc2ccccc2nc1N(C)S(=O)(=O)c1ccc(C)cc1
class 0

// next record CC(C)(CN1CCN(c2ccccc2)CC1)NS(=O)(=O)c1ccccc1
class 0

// next record Cc1ccc(NC(=O)NC(=O)N(C(C)C)S(C)(=O)=O)nc1
class 0

// next record COc1cc(CCC(C)NCc2ccccc2)ccc1O (centres undefined)
class 0

// next record O=C(CCCn1nnnc1CN1CCOCC1)N1CCC(c2ccc(F)cc2)C1 (centres undefined)
class 0

// next record CC(C)NC(=O)c1ccc(COc2ccc(C(C)(C)C)cc2)o1
class 0

// next record O=C(Nc1ccccc1Oc1ccccc1)c1cccs1
class 0

// next record CCCCCCCCCn1ccc(=N)cc1
class 0

// next record CCCCC(=O)NC(c1ccco1)c1c(O)ccc2ccccc12 (centres undefined)
class 0

// next record COc1ccccc1C(=O)NC(=O)Nc1cccc(Cl)c1
class 0

* * *

Experiment Notes: Counterscreen for Identifying a Potential Treatment of Ataxia-Telangiectasia: Hit Validation
Study Conditions: cell-free AlphaLISA/AlphaScreen artifact counterscreen, PBS only, no cells; series mostly up to 76.9 µM
Excerpt: NIH Chemical Genomics Center [NCGC] NIH Molecular Libraries Probe Centers Network [MLPCN] Assay Submitter (PI): Wei Zheng and Yosef Shiloh Ataxia-telangiectasia (A-T) is a devastating and progressive disease for which, there is no cure. […] 10. Readout, EnVision, EnVision plate reader. […] PBS was dispensed into medium-binding white solid-bottom tissue culture treated Kalypsys plates with a Multidrop dispenser. […] EnVision protocol for 1536-well AlphaScreen read (30ms excitation, 100ms read), about 10 min/plate. […]
Activity calls are given as the source filed them. The call rests on the fitted dose curve; in most records, active means well fitted activation curve with a large enough effect; inconclusive means small, poorly fitted or top-dose-only effect; inactive means no such curve, though single readings can be large or run the other way.
Select the correct class. Options are yes (1) (active), no (0) (inactive) and nothing else.

Molecule: CC(=O)Nc1ccc(NC2=CC(=O)c3ccccc3C2=O)cc1
Assigned Class: no (0)
--
Molecule: O=C1C2C3C=CC(CC3)C2C(=O)N1c1cccc(Br)c1 (configuration not stated)
Assigned Class: no (0)
--
Molecule: CCCCN(c1nc2ccccc2nc1Cl)S(=O)(=O)c1ccc(C)cc1
Assigned Class: no (0)
--
Molecule: COc1ccc(C2(C)CC(C)(C)Nc3ccccc32)cc1 (configuration not stated)
Assigned Class: no (0)

State the result this test recorded for COc1ccc(-n2c(=S)[nH]c3ccccc3c2=S)cc1 .
no (0)

// next record Cn1cc(S(=O)(=O)Nc2ccc(OC(F)(F)F)cc2)c(=O)n(C)c1=O
no (0)
